test: chemical genetic growth profiling, strain panel (AID 1159580);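 also: tested at 20 µM; growth read once vehicle control cultures reached saturation at 30 °C; 1 = growth at the plate median or of vehicle wells; lower values mean less growth of the strain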; details: S. cerevisiae deletion strains, growth OD, locus YDR195W, strain ref2
Among all 5,500 compounds or so, about 2,000 (36%) were called active. Roughly 18% stayed inconclusive and do not appear here. Rule as the data show it: active = normalized growth mostly below about 0.91 (no sharp cut-off); inconclusive = no clear call, values can overlap the other calls; inactive = mostly above about 0.92. This is one part of the list.
Your answer must be one of the following: Y for active, N for inactive

Inquiry: How did this test come out for C[N+]1(CCCCC[N+]2(C)CCCC2)CCCC1 ?
Reply text: N

Inquiry: How did this test come out for CN1CCN2c3ccccc3Cc3ccccc3C2C1 (stereo not drawn) ?
Reply text: N

Inquiry: How did this test come out for O=c1cc(-c2ccc(O)c(O)c2)oc2ccccc12 ?
Reply text: N

Inquiry: How did this test come out for CCN(CC)CCNc1ccc(CO)c2sc3ccccc3c(=O)c12 ?
Reply text: N

Inquiry: How did this test come out for N[C@@H]1CONC1=O ?
Reply text: N

Inquiry: How did this test come out for O=c1[nH]c2cc(Cl)c(Cl)cc2[nH]c1=O ?
Reply text: N

Inquiry: How did this test come out for CC(=O)OCC(=O)[C@H]1CCC2C3CC=C4C[C@@H](O)CC[C@]4(C)C3CC[C@@]21C (stereo partly drawn) ?
Reply text: Y

Inquiry: How did this test come out for COc1c(O)cccc1O ?
Reply text: N

Inquiry: How did this test come out for OC1C(O)C(O)C(O)C(O)C1O (stereo not drawn) ?
Reply text: N

Inquiry: How did this test come out for O=C1CC[C@]23C=CC(=O)NCCCCNCCCNC(=O)/C=C/c4ccc(c2c4)O[C@@H]3C1 ?
Reply text: N

Inquiry: How did this test come out for CN1CCOC(c2ccccc2)c2ccccc2C1 (stereo not drawn) ?
Reply text: N

Inquiry: How did this test come out for COc1c2c(cc3c1OCO3)CC[N+](C)=C2 ?
Reply text: N

Inquiry: How did this test come out for NCCc1ccc(O)cc1 ?
Reply text: N

Inquiry: How did this test come out for CCCCC1C(=O)N(c2ccccc2)N(c2ccccc2)C1=O ?
Reply text: N

Inquiry: How did this test come out for CC(C(=O)O)[C@H]1CCC2C3CC=C4C[C@@H](O)CC[C@]4(C)C3CC[C@@]21C (stereo partly drawn) ?
Reply text: Y

Inquiry: How did this test come out for NS(=O)(=O)c1cc2c(cc1C(F)(F)F)NCNS2(=O)=O ?
Reply text: N

Inquiry: How did this test come out for C=CCc1ccccc1OCC(O)CNC(C)C (stereo not drawn) ?
Reply text: N

Inquiry: How did this test come out for COc1cccc2c1cc([N+](=O)[O-])c1c(C(=O)O)cc3c(c12)OCO3 ?
Reply text: N

Inquiry: How did this test come out for NCCc1ccc(O)c(O)c1 ?
Reply text: N

Inquiry: How did this test come out for CC(=O)CC(c1ccccc1)c1c(O)c2ccccc2oc1=O (stereo not drawn) ?
Reply text: N

Inquiry: How did this test come out for O=c1c(-c2ccccc2)coc2cc(O)cc(O)c12 ?
Reply text: N

Inquiry: How did this test come out for CC(=O)Oc1cc(-c2coc3cc(OC(C)=O)c(OC(C)=O)c(OC(C)=O)c3c2=O)cc(OC(C)=O)c1OC(C)=O ?
Reply text: N

Inquiry: How did this test come out for COc1cccc(-c2cc(=O)c3ccc(OC)cc3o2)c1 ?
Reply text: N

###

Field: normalized growth. Provide a value for each of the compounds that follow.
assay: chemical genetic growth profiling, strain panel (AID 1159580);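 also: tested at 20 µM; growth read once vehicle control cultures reached saturation at 30 °C; 1 = growth at the plate median or of vehicle wells; lower values mean less growth of the strain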; conditions: S. cerevisiae deletion strains, growth OD, locus YHR027C, strain rpn1, stronger effect = lower value
The whole screen tested about 5,500 compounds, of which about 2,000 (36%) were called active. Inconclusive results (about 18%) are left out. Some of the results follow.
Lab note: write the figure by itself, no unit.

Inquiry: // normalized growth lookup, key: O=c1c(-c2ccccc2)coc2cc(O)cc(O)c12
Reply text: 0.998

Inquiry: // normalized growth lookup, key: CC[N+]1(C)CCCC(OC(=O)C(O)(c2ccccc2)c2ccccc2)C1 (centres undefined)
Reply text: 1.02

Inquiry: // normalized growth lookup, key: O=C(O)c1cc(=O)c2ccccc2o1
Reply text: 0.977

Inquiry: // normalized growth lookup, key: COc1cc2cc[n+]3cc4c(OC)c(OC)ccc4cc3c2cc1OC
Reply text: 0.967

Inquiry: // normalized growth lookup, key: CC(=O)OCC(=O)[C@@]1(O)CCC2C3CC[C@@H]4C[C@H](O)CC[C@]4(C)C3C(=O)C[C@@]21C (some centres undefined)
Reply text: 1.01

Inquiry: // normalized growth lookup, key: CN1CCN2c3ccccc3Cc3ccccc3C2C1 (centres undefined)
Reply text: 1

Inquiry: // normalized growth lookup, key: C[n+]1cc2c3c(ccc2c2ccc4cc5c(cc4c21)OCO5)OCO3
Reply text: 0.73

Inquiry: // normalized growth lookup, key: COc1cc2c(cc1OC)-c1cc3ccc(OC)c(OC)c3c[n+]1CC2
Reply text: 0.975

Inquiry: // normalized growth lookup, key: [N-]=[N+]=CC(=O)OCC(N)C(=O)O (centres undefined)
Reply text: 0.995

###

Field: normalized growth. Provide a value for each of the compounds that follow.
assay: chemical genetic growth profiling, strain panel (AID 1159580);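 also: tested at 20 µM; growth read once vehicle control cultures reached saturation at 30 °C; 1 = growth at the plate median or of vehicle wells; lower values mean less growth of the strain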; settings: S. cerevisiae deletion strains, growth OD, locus YLL001W, strain dnm1, stronger effect = lower value
Screen size: about 5,500 compounds; about 2,000 (36%) were called active. Roughly 18% stayed inconclusive and do not appear here. The list shows a part of the results.
Lab note: write the figure by itself, no unit.

Inquiry: // normalized growth lookup, key: O=C(/C=C/c1ccccc1)c1ccc(O)cc1
Reply text: 0.366

Inquiry: // normalized growth lookup, key: COc1c2c(cc3c1OCO3)CC[N+](C)=C2
Reply text: 1

Inquiry: // normalized growth lookup, key: FC(F)(F)C(Cl)Br (stereo unspecified)
Reply text: 1.01

Inquiry: // normalized growth lookup, key: O=C1c2c(O)ccc(O)c2C(=O)c2c(NCCNCCO)ccc(NCCNCCO)c21
Reply text: 0.727

Inquiry: // normalized growth lookup, key: CC(=O)[C@H]1CCC2C3CC=C4C[C@@H](O)CC[C@]4(C)C3CC[C@@]21C (stereo partly specified)
Reply text: 0.928

Inquiry: // normalized growth lookup, key: Cn1nnnc1SCC1=C(C(=O)O)N2C(=O)C(NC(=O)C(O)c3ccccc3)C2SC1 (stereo unspecified)
Reply text: 0.955

Inquiry: // normalized growth lookup, key: CC(=O)Nc1ccc(O)cc1
Reply text: 0.998

Inquiry: // normalized growth lookup, key: COC(=O)C1=C(C)NC(C)=C(C(=O)OC)C1c1ccccc1[N+](=O)[O-]
Reply text: 0.972

Inquiry: // normalized growth lookup, key: CC(=O)Oc1ccc(-c2cc(=O)c3c(OC(C)=O)cc(OC(C)=O)cc3o2)cc1
Reply text: 0.997

Inquiry: // normalized growth lookup, key: CNCCC=C1c2ccccc2CCc2ccccc21
Reply text: 0.988

Inquiry: // normalized growth lookup, key: COc1c(O)cc2c(-c3ccccc3)cc(=O)oc2c1OC
Reply text: 0.962

Inquiry: // normalized growth lookup, key: COC(=O)C1=C(C)NC(C)=C(C(=O)OCCN(C)Cc2ccccc2)C1c1cccc([N+](=O)[O-])c1 (stereo unspecified)
Reply text: 0.98

Inquiry: // normalized growth lookup, key: Nc1ccc(C(=O)O)c(O)c1
Reply text: 0.924

Inquiry: // normalized growth lookup, key: CC1=C2C(=CO[C@H](C)[C@H]2C)C(=O)C(C(=O)O)=C1O
Reply text: 1

Inquiry: // normalized growth lookup, key: CCN1CCN(c2cc3c(cc2F)c(=O)c(C(=O)O)cn3C2CC2)CC1
Reply text: 1.02

Inquiry: // normalized growth lookup, key: COc1ccc(C(=O)/C=C/c2ccccc2)cc1
Reply text: 0.898

Inquiry: // normalized growth lookup, key: CC(=O)[C@H]1CCC2C3CC=C4C[C@@H](OC(=O)CCC(=O)O)CC[C@]4(C)C3CC[C@@]21C (stereo partly specified)
Reply text: 0.948

Inquiry: // normalized growth lookup, key: OC1C(O)C(O)C(O)C(O)C1O (stereo unspecified)
Reply text: 0.997

Inquiry: // normalized growth lookup, key: Cc1cc2cc3c(C)cc(=O)oc3c(C)c2o1
Reply text: 0.993

Inquiry: // normalized growth lookup, key: CC1=NCCc2c1[nH]c1cc(O)ccc21
Reply text: 0.984

Inquiry: // normalized growth lookup, key: CC(=O)Nc1cccc(O)c1
Reply text: 0.995

###

Field: normalized growth. Provide a value for each of the compounds that follow.
experiment: chemical genetic growth profiling, strain panel (AID 1159580);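 also: tested at 20 µM; growth read once vehicle control cultures reached saturation at 30 °C; 1 = growth at the plate median or of vehicle wells; lower values mean less growth of the strain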; settings: S. cerevisiae deletion strains, growth OD, locus YLR039C, strain RIC1, stronger effect = lower value
Screen size: about 5,500 compounds; about 2,000 (36%) were called active. Inconclusive results (about 18%) are left out. The list shows a part of the results.
Lab note: write the figure by itself, no unit.

Inquiry: // normalized growth lookup, key: O=C1c2c(O)ccc(O)c2C(=O)c2c(NCCNCCO)ccc(NCCNCCO)c21
Reply text: 0.707

Inquiry: // normalized growth lookup, key: Cn1nnnc1SCC1=C(C(=O)O)N2C(=O)C(NC(=O)C(O)c3ccccc3)C2SC1 (stereo unspecified)
Reply text: 0.991

Inquiry: // normalized growth lookup, key: CC1=NCCc2c1[nH]c1cc(O)ccc21
Reply text: 0.993

Inquiry: // normalized growth lookup, key: CC(=O)Nc1cccc(O)c1
Reply text: 1

Inquiry: // normalized growth lookup, key: C=CCCCCCCCCCCCC(O)CC(O)CO (stereo unspecified)
Reply text: 0.996

Inquiry: // normalized growth lookup, key: CCN(CC)CCNc1ccc(CO)c2sc3ccccc3c(=O)c12
Reply text: 1.01
